System: HCT-116 colon
Assay method text: NCI-60 one-dose screen, 48 h
Applied conditions: 10 µM unless noted
Compounds without any hit were thinned out: in the full panel of roughly 83,000, 20% have a hit. The source made the active and inactive calls. The calls were made as follows: active = growth percent below 10; inactive = the rest.
Please answer using one outcome listed in yes (1) = active, no (0) = inactive

1. O=C(Nc1ccncc1F)c1cn(CC2CC2)c2ccccc12 :: no (0)
2. Cc1cnc(/C=C/C(=O)O)cc1-c1cc2c(cc1C)C(C)(C)CCC2(C)C :: no (0)
3. COc1ccc(Nc2ccnc3cc(Cl)ccc23)cc1CN(CCCl)CCCl :: yes (1)
4. CC12CCC=CC1CCC1C2CCC2(C)C(c3ccc(=O)oc3)CCC12O (stereo not given) :: yes (1)

Note: attention shifts to another entry.
Task: Which outcome was assigned to `Cc1sc2c(c1C)C(c1ccc(Cl)cc1)=N[C@@H](CC(=O)OC(C)(C)C)c1nnc(C)n1-2` in this test?
Result: no (0)

---

Tested on: M14 melanoma
Assay method text: NCI-60 one-dose screen, 48 h (100 = growth as untreated, 0 = no growth, -100 = all killed)
Applied conditions: 10 µM unless noted
About 83,000 compounds went through this panel and 20% of them were active in at least one assay; those are over-represented in the sample as a whole. Calls of active or inactive are those of the source. How the source made its calls: active means growth percent below 10; inactive means the rest.
Measurement name: growth

1) COc1ccc(/C=C\c2cc(OC)c(OC)c(OC)c2)c(NS(=O)(=O)c2ccc(C)cc2)c1O :: 9.2% (active)
2) CC(=O)O[C@H]1CC[C@]2(C)[C@H]3CC[C@]4(C)[C@@H](OC(C)=O)CC[C@H]4[C@@H]3[C@@H](C)[C@]2(O)C1 :: 109% (inactive)
3) NC(=O)CNc1ccc([As]=[As]c2ccc(NCC(N)=O)cc2)cc1 (stereo not given) :: 57.7% (inactive)
4) O[C@H](CN1CC1)[C@@H](O)CN1CC1 :: 48.9% (inactive)

Next compound, please.
Task: For the compound `CC1=C(CNO)C2=C(C)C3(CC3)[C@@](C)(O)C(=O)C2=C1` , give its measured growth value.
Result: 26.8% (inactive)

---

Test system: RPMI-8226 leukemia
Assay method text: NCI-60 one-dose screen, 48 h (100 = growth as untreated, 0 = no growth, -100 = all killed)
Applied conditions: 10 µM unless noted
About 83,000 compounds went through this panel and 20% of them were active in at least one assay; those are over-represented in the sample as a whole.
Measurement name: growth (%)
Report only the number, with the unit % understood.

1. CCCOC(=O)N[C@H]1CCc2c(Br)c(OC)c(OC)c(OC)c2-c2ccc(SC)c(=O)cc21 :: -9.16
2. CCOc1ccccc1C(=O)OCC(Cl)(Cl)Cl :: 107
3. CC[C@H](C)[C@H](NC(=O)[C@H]1CCCCN1C)C(=O)N(C)[C@H](C[C@@H](O)c1nc(C(=O)N[C@@H](Cc2ccccc2)C[C@H](C)C(=O)O)cs1)C(C)C :: 59.8
4. COC(=O)C1OC(Oc2ccc(N(CCCl)CCCl)cc2)C(OC(C)=O)C(OC(C)=O)C1OC(C)=O (stereo not given) :: 96.6
5. CCCC(C)C1(CC)C(=O)NC(=O)N(C)C1=O (stereo not given) :: 103
6. COc1ccc(Nc2ccc([N+](=O)[O-])cc2[N+](=O)[O-])cc1CN(CCCl)CCCl :: 0.0676
7. Oc1c(O)c(Cl)c(Cl)c(Cl)c1Cl :: 25.1
8. CSc1nc(Cl)cc(N2CC2)n1 :: 73.8
9. Nc1ccc2c(c1)Cc1cc(Br)ccc1-2 :: 79.8

Next compound, please.
Task: For the compound `COC(=O)[C@@H](C)C[C@H](Cc1ccccc1)NC(=O)c1csc([C@@H](C[C@H](C(C)C)N(C)C(=O)C2(NC(=O)[C@H]3CCCCN3C)CC2)OC(C)=O)n1` , give its measured growth value.
Result: 12.8

---

Tested on: UO-31 renal
Assay method text: NCI-60 one-dose screen, 48 h
Applied conditions: 10 µM unless noted
About 83,000 compounds went through this panel and 20% of them were active in at least one assay; those are over-represented in the sample as a whole. Activity calls are given as the source filed them. How the source made its calls: active means growth percent below 10; inactive means the rest.
Please answer using one outcome listed in true (1) = active, false (0) = inactive

The following compounds have reported results that may help.
1. CCCCOc1ccc(C(N)Cc2ccccc2)cc1 (configuration not stated) :: false (0)
2. C=CC[n+]1ccc(-c2cc[n+](CC=C)cc2)cc1 :: false (0)
3. COC(=O)[C@@H](C)C[C@H](Cc1ccccc1)NC(=O)c1csc([C@@H](C[C@H](C(C)C)N(C)C(=O)[C@H](C)NC(=O)[C@H]2CCCN2C)OC(C)=O)n1 :: false (0)

Task: Which outcome was assigned to O=C1CC2(CC3(Cl)C(Cl)=C(Cl)C2(Cl)C3(Cl)Cl)C(=O)O1 (configuration not stated) in this test?
Result: false (0)

Task: Which outcome was assigned to `Clc1ccc2nnnn2n1` in this test?
Result: true (1)

Task: Which outcome was assigned to CCC(O)(CN)c1ccccc1 (configuration not stated) in this test?
Result: false (0)

Task: Which outcome was assigned to `Nc1ccc2c(c1)Cc1cc(Br)ccc1-2` in this test?
Result: false (0)

---

Tested on: SF-295 CNS
Assay method text: NCI-60 one-dose screen, 48 h (100 = growth as untreated, 0 = no growth, -100 = all killed)
Applied conditions: 10 µM unless noted
Compounds without any hit were thinned out: in the full panel of roughly 83,000, 20% have a hit.
Label 1 when growth is strictly below 90%; at or above that, label -1.

The following molecules have reported results that may help.
1. CC[C@H](C)[C@H](NC(=O)NC(C)(C)C)C(=O)N(C)[C@H](C[C@@H](OC(C)=O)c1nc(C(=O)N[C@@H](Cc2ccccc2)C[C@H](C)C(=O)OC)cs1)C(C)C :: 1
2. CCCCOc1ccc(C(N)Cc2ccccc2)cc1 (stereo not drawn) :: -1
3. COC(=O)C1OC(Oc2ccc(N(CCCl)CCCl)cc2)C(OC(C)=O)C(OC(C)=O)C1OC(C)=O (stereo not drawn) :: 1
4. COc1ccc(/C(C)=C(\c2ccc(OCCN3CCOCC3)cc2)c2ccc(OC(=O)Cc3ccccc3)cc2)cc1 :: -1
5. CC(=O)[C@H]1CC[C@H]2[C@@H]3CC[C@H]4C[C@H](N)CC[C@]4(C)[C@H]3CC[C@]12C :: -1

Task: Item `CC[C@H](C)[C@H](NC(=O)N[C@@H](C)c1ccccc1)C(=O)N(C)[C@H](C[C@@H](OC(C)=O)c1nc(C(=O)N[C@@H](Cc2ccccc2)C[C@H](C)C(=O)OC)cs1)C(C)C` : growth beneath 90%, strictly?
Result: 1

Task: Item `COc1ccc2c(c1)c(-c1nc(-c3c[nH]c4ncccc34)cs1)cn2CCCCN1CCCCC1` : growth beneath 90%, strictly?
Result: 1

---

Tested on: UO-31 renal
Assay method text: NCI-60 one-dose screen, 48 h (100 = growth as untreated, 0 = no growth, -100 = all killed)
Applied conditions: 10 µM unless noted
Compounds without any hit were thinned out: in the full panel of roughly 83,000, 20% have a hit.
The entries below are paired with their reported growth.
Report only the number, with the unit % understood.

Here is how some compounds turned out for growth.
1. Fc1ccc2c(c1)c(-c1nc(-c3c[nH]c4ncccc34)cs1)cn2CCN1CCOCC1 :: 25.5
2. COc1cc2c(c(OC)c1OC)-c1ccc([O-])c(=O)cc1[C@@H](NC(C)=O)CC2.COc1cc2c(c(OC)c1OC)-c1ccc([O-])c(=O)cc1[C@@H](NC(C)=O)CC2.[Cu+2] :: 22.2
3. Fc1c[c-]c(-c2ccccn2)c(F)c1.[CH3-].[Pt+2].c1ccc([PH+](c2ccccc2)c2ccccn2)cc1 :: -71.9

Task: For the compound `CCCc1cc(O)c2c3c(c(=O)oc2c1)CN(C)CC3` , give its measured growth value.
Result: 22.7

Task: For the compound `CC1(C)[C@H](O)[C@H](F)C[C@@]2(C)Oc3ccc(C(=O)Nc4ccc5c(c4)NC(=O)C54CCN(CCCCC#N)CC4)cc3C[C@H]12` , give its measured growth value.
Result: 31.5

Task: For the compound `COC(=O)CCc1c[nH]c2ccc(N(CCCl)CCCl)cc12` , give its measured growth value.
Result: 19.5

Task: For the compound `COc1ccc(O)c(CNC(=O)CN2CCCC2=O)c1` , give its measured growth value.
Result: 98.7

Task: For the compound `Cn1cc(-c2csc(-c3cn(CCCCN4CCCCC4)c4ccc(F)cc34)n2)c2cccnc21` , give its measured growth value.
Result: 20.6

Task: For the compound `Cc1c(C)c([N+](=O)[O-])c(C)c(C)c1[N+](=O)[O-]` , give its measured growth value.
Result: 106
